tested on: barnyardgrass (Echinochloa crus-galli); experiment: Test A postemergence; assay type: in vivo; conditions: Echinochloa crus-galli, post-emergence, 240 h, 500 g ai/ha, postemergence; visual injury, 0 to 100 scale (0 no effect, 100 complete control), approx. 10 d; read-out: Plant response rating, Barnyardgrass
Value Type: pest or weed control at 500 g/ha (%)
The answer is to be given in %; state only the numeric part.

A selection of reference data follows.
| Molecule | Endpoint Result |
| --- | --- |
| CSc1ccccc1NC(=O)[C@H]1C(=O)N(C)CC[C@@H]1c1ccc(OC(F)(F)F)cc1 | 0 |
| CN1CC(c2ccccc2OC(F)(F)C(F)F)C(C(=O)Nc2ccccc2F)C1=O (stereo not drawn) | 0 |

// next item, pest or weed control at 500 g/ha requested
Prompt: Look up pest or weed control at 500 g/ha for this molecule: "COc1ccc([C@H]2CN(C)C(=O)[C@@H]2C(=O)Nc2ccccc2F)cc1F"
Completion: 90

Ref: patent US12077503B2
